Where these numbers come from: patent US20220033508A1

Molecular target: T1, Recombinant human extracellular domain of IL13RA2-6His (27-343) (human, UniProt Q14627 27-343)
T1 construct: also called Human IL13RA2-6His; human IL13Rα2
T1 sequence: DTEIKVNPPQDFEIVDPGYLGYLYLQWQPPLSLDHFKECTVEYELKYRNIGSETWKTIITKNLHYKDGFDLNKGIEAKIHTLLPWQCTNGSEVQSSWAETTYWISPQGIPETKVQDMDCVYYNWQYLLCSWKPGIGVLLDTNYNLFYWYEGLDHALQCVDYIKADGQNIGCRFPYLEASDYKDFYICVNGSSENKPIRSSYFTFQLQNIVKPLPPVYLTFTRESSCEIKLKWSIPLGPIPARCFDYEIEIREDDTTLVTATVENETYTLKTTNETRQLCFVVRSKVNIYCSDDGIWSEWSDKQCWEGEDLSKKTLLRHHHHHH
Test: ELISA on coated IL13RA2-6His; antibody kept 8 days, column headed 'EC50 4° C.'
List of EC50 values.
Report the value in µg/mL with no unit label.

// worked examples, EC50 included
BINDER	EC50 [µg/mL]
Clone 47 VHAback / Clone 47 VKA (antibody, V domains shown, Expressed as IgG in Expi293 cells; also called VHAback/VKA) VH: QVQLVQSGAEVKKPGASVKVSCKASGYTFSNYLMNWVRQAPGQGLEWIGRIDPYDGDIDYNQNFKDRATLTVDKSASTAYMELSSLRSEDTAVYYCARGYGTAYGVDYWGQGTSVTVSS VL: EIVLTQSPATLSLSPGERATLSCRASESVDNYGISFMNWYQQKPGQAPRLLIYAASRQGSGIPDRFSGSGSGTDFTLTISRLEPEDFAVYYCQQSKEVPWTFGGGTKLEIK	0.0456
Clone 47 VHA / Clone 47 VKA (HuCL47) (antibody, V domains shown, Expressed as IgG in Expi293 cells; also called VHA/VKA; VHANKA) VH: QVQLVQSGAEVKKPGASVKVSCKASGYTFSNYLMNWVRQAPGQGLEWMGRIDPYDGDIDYNQNFKDRVTITRDTSASTAYMELSSLRSEDTAVYYCARGYGTAYGVDYWGQGTSVTVSS VL: EIVLTQSPATLSLSPGERATLSCRASESVDNYGISFMNWYQQKPGQAPRLLIYAASRQGSGIPDRFSGSGSGTDFTLTISRLEPEDFAVYYCQQSKEVPWTFGGGTKLEIK	0.0178

Next, consider the following binder.
Inquiry: I'd like to know its EC50. The binder in question is Clone 47 VHA3 / Clone 47 VKA2 (antibody, V domains shown, Expressed as IgG in Expi293 cells; also called VHA3/VKA2) VH: QVQLVQSGAEVKKPGASVKVSCKASGYTFSNYLMNWVRQAPGQGLEWMGRIDPYDGDIDYNQNFKDRVTITRDKSASTAYMELSSLRSEDTAVYYCARGYGTAYGVDYWGQGTSVTVSS VL: EIVLTQSPATLSLSPGERATLSCRASESVDNYGISFMNWYQQKPGQAPRLLIYAASRQGSGIPDRFSGSGSGTDFTLTISRLEPEDFAVYFCQQSKEVPWTFGGGTKLEIK
Reply text: 0.0258
